Record form. Attribute: Ki. Fill in for each entry.
TARGET_SYSTEM: CDK7/cyclinH/MAT1 trimeric complex (Homo sapiens, UniProt P50613)
Sequence (P50613 whole entry): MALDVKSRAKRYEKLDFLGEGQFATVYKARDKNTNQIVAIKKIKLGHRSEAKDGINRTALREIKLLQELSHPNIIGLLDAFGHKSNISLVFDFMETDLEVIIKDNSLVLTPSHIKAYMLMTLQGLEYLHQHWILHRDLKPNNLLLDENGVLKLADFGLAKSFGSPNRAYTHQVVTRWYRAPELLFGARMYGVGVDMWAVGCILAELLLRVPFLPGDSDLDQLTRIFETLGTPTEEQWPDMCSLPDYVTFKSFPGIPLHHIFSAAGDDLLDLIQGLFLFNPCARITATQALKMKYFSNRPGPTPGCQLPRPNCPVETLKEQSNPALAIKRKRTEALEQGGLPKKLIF
Sequence (P51946 whole entry partner): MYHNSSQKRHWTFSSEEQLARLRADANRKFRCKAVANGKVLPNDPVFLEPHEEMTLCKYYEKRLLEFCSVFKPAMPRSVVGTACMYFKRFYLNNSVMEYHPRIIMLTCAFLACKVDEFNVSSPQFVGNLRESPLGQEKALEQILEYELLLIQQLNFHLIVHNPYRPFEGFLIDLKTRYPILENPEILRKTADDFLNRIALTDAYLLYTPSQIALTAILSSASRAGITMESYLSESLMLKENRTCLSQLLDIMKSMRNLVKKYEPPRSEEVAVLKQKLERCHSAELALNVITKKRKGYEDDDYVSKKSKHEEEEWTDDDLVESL
Sequence (P51948 whole entry partner): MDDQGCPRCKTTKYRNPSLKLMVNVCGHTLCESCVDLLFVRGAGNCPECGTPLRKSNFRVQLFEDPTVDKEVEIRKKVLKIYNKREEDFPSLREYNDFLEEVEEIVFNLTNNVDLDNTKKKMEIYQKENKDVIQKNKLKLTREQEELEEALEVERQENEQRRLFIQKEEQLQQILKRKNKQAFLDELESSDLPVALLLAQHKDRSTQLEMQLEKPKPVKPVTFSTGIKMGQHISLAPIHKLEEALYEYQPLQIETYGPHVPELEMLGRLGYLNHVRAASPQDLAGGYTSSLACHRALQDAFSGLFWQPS
ASSAY_NAME: In vitro CDK7 assay, potency of irreversible covalent inhibitors (kinact/KI), coupled PK/LDH ADP readout at 340 nm
CONDITION: CDK7 (20 nM enz.) (KI, μM), 20 nM enzyme
Give bare numbers, in µM.

>>> print(df.to_string())
                                   molecule  parameter_measured  unit_name  numeric_readout
0  CC#CC(=O)N1CCC(N2CCN(c3cc4c(c(C)n3)OCc3c(N5CCOCC5)ccnc3N4)CC2)CC1 [Compound 393]                  Ki         µM           0.0477

Lab note: each molecule below needs its Ki filled in.
1. C=CC(=O)N1CC(N2CC(c3cc4c(c(P(C)(C)=O)n3)OCc3c(N5CCOCC5)ccnc3N4)C2)C1 [compound 331]
2. C=CC(=O)N1CC(N2CC(c3cc(F)c4c(c3)Nc3nccc(N5CCOCC5)c3CO4)C2)C1 [Compound 166]
3. C=CC(=O)N1CC(N2CCC(c3cc(C)c4c(c3)Nc3nccc(C5=CCS(=O)(=O)CC5)c3CO4)CC2)C1 [Compound 81]

A.
0.204
0.0262
0.067

###

TARGET_SYSTEM: CDK7/cyclinH/MAT1 trimeric complex (Homo sapiens)
ASSAY_NAME: In vitro CDK7 assay, potency of irreversible covalent inhibitors (kinact/KI), coupled PK/LDH ADP readout at 340 nm
CONDITION: CDK7 (20 nM enz.) (KI, μM), 20 nM enzyme
Record form. Attribute: Ki. Fill in for each entry.
Numbers only, in µM.

Worked cases, answers included:
>>> df
                                   compound  parameter_measured  numeric_readout
0  C=CC(=O)N1CC(N2CC(c3cc4c(c(C)n3)OC(C)c3c(N5CCOCC5)ccnc3N4)C2)C1 (stereo not shown) [Compound 264]                  Ki           0.0439
1  C=CC(=O)N1CCC(n2cc(-c3cc(C)c4c(c3)Nc3nccc(N5CCOCC5)c3CO4)cn2)CC1 [Compound 379]                  Ki           0.0333
2  C=CC(=O)N1CCC(N2CC(c3ccc4c(c3)Nc3nccc(C5CCOCC5)c3CO4)C2)CC1 [Compound 36]                  Ki            0.092
3  C=CC(=O)N1CC[C@H](N2CC(c3cc4c(c(C)n3)OCc3c(-c5cnn(C)c5)ccnc3N4)C2)[C@@H](F)C1 (mixture of isomers) [Compound 212]                  Ki              0.2

Lab note: each compound below needs its Ki filled in.
1. C=CC(=O)N1CC[C@@H](N2CC(c3cc(C)c4c(c3)Nc3nccc(-c5cnn(C)c5)c3CO4)C2)C1 (single isomer, unassigned) [Compound 362]
2. C=CC(=O)Nc1ccc(CNc2ccc3c(c2)Nc2nccc(N4CCOCC4)c2CO3)cn1 [Compound 16]
3. C=CC(=O)N1CC(N2CCC(c3ccc4c(c3)Nc3ncc(F)c(N5CCOCC5)c3CO4)CC2)C1 [Compound 151]

A.
0.0325
0.0286
0.0205

###

TARGET_SYSTEM: CDK7/cyclinH/MAT1 trimeric complex (Homo sapiens)
ASSAY_NAME: In vitro CDK7 assay, potency of irreversible covalent inhibitors (kinact/KI), coupled PK/LDH ADP readout at 340 nm
CONDITION: CDK7 (20 nM enz.) (KI, μM), 20 nM enzyme
Consider the cut-off 0.06 µM. If the recorded Ki is strictly smaller, the label is yes (1); if not, the label is no (0).

Below, 2 compounds whose answers are already recorded.
In [3]: df
Out[3]:
                                   compound  category
0  C=CC(=O)N1CC[C@H](N2CCC(c3ccc4c(c3)Nc3ncc(F)c(N5CCOCC5)c3CO4)CC2)C1 (single isomer, unassigned)    no (0)
1  C=CC(=O)N1CC[C@H](N2CCC(c3ccc4c(c3)Nc3nccc(N5CCOCC5)c3CO4)CC2)C1 (single isomer, unassigned)    no (0)

Q. # strict comparison: is reported Ki < 0.06 µM? input = C=CC(=O)N1CC[C@@H](N2CCC(c3cc4c(c(C)n3)OCc3c(N5CCOCC5)ccnc3N4)CC2)C1 (single isomer, unassigned) [Compound 184]
A. yes (1)

Q. # strict comparison: is reported Ki < 0.06 µM? input = CC#CC(=O)N1CCC(N2CC(c3cc(C)c4c(c3)Nc3nccc(C5CCOCC5)c3CO4)C2)C1 (stereo not drawn)
A. no (0)

Q. # strict comparison: is reported Ki < 0.06 µM? input = C=CC(=O)N1CC[C@@H](N2CC(c3cc(C)c4c(c3)Nc3nccc(N5CCOCC5)c3CO4)C2)[C@H](F)C1 (mixture of isomers)
A. yes (1)

Q. # strict comparison: is reported Ki < 0.06 µM? input = C=CC(=O)N1CC[C@@H](N2CC(c3cc4c(c(C5CC5)n3)O[C@H](C)c3c(N5CCOCC5)ccnc3N4)C2)C1 (single isomer, unassigned)
A. no (0)

###

TARGET_SYSTEM: CDK7/cyclinH/MAT1 trimeric complex (Homo sapiens)
ASSAY_NAME: In vitro CDK7 assay, potency of irreversible covalent inhibitors (kinact/KI), coupled PK/LDH ADP readout at 340 nm
CONDITION: read-out: CDK7 (20 nM enz.) (kobs/[I], M^−1*s^−1), 20 nM enzyme
Record form. Attribute: kinact/KI. Fill in for each entry.
One number for each entry, in M⁻¹ s⁻¹.

Worked cases, answers included:
                                   compound  parameter_measured  unit_name  numeric_readout
0  C=CC(=O)N1CC(N2CC[C@@H](c3ccc4c(c3)Nc3nccc(N5CCOCC5)c3CO4)C[C@@H]2C)C1 (single isomer, unassigned)           kinact/KI    M⁻¹ s⁻¹             1040
1  COC(=O)/C=C/C(=O)N1CC(N2CCC(c3cc4c(c(C)n3)OCc3c(-c5cnn(C)c5)ccnc3N4)CC2)C1           kinact/KI    M⁻¹ s⁻¹             1170
2  C=CC(=O)N1CCC(N2CC(c3cc4c(c(C(F)(F)F)c3)OCc3c(N5CCOCC5)ccnc3N4)C2)CC1           kinact/KI    M⁻¹ s⁻¹              622
3  C=CC(=O)N1CC(N2CCC(c3cc(F)c4c(c3)Nc3nccc(-c5cnn(C)c5)c3CO4)CC2)C1           kinact/KI    M⁻¹ s⁻¹             1440
4  C#CCCN(C)C/C=C/C(=O)N1CC(N2CCC(c3cc(Cl)c4c(c3)Nc3nccc(C5CCOCC5)c3CO4)CC2)C1           kinact/KI    M⁻¹ s⁻¹             1040

Lab note: each compound below needs its kinact/KI filled in.
1. C#CCCN(C)C/C=C/C(=O)N1CC(N2CCC(c3cc(C)c4c(c3)Nc3nccc(N5CCOCC5)c3CO4)CC2)C1
2. C=CC(=O)N1CC(N2CCC(c3cc(Cl)c4c(c3)Nc3nccc(N5CCOCC5)c3CO4)CC2)C1
3. C=CC(=O)N1CC(N2[C@@H]3CC[C@H]2C[C@@H](c2ccc4c(c2)Nc2nccc(N5CCOCC5)c2CO4)C3)C1

A.
1660
1740
1150

###

TARGET_SYSTEM: CDK7/cyclinH/MAT1 trimeric complex (Homo sapiens, UniProt P50613)
ASSAY_NAME: In vitro CDK7 assay, potency of irreversible covalent inhibitors (kinact/KI), coupled PK/LDH ADP readout at 340 nm
CONDITION: CDK7 (20 nM enz.) (KI, μM), 20 nM enzyme
Consider the cut-off 0.3 µM. If the recorded Ki is strictly smaller, the label is Criterion met; if not, the label is Criterion not met.

Below, 4 molecules whose answers are already recorded.
                                   molecule           category
0  CC#CC(=O)N1CC(N2CCC(c3cc4c(c(C)n3)OCc3c(N5CCOCC5)ccnc3N4)CC2)C1      Criterion met
1  C=CC(=O)N1CC[C@@H](N2CC(c3cc4c(c(C)n3)O[C@@H](C)c3c(-c5cnn(C)c5)ccnc3N4)C2)C1 (single isomer, unassigned)  Criterion not met
2  C=CC(=O)N1CC[C@@H](N2CC(c3cc(C)c4c(c3)Nc3nccc(N5CCOCC5)c3CO4)C2)C1 (single isomer, unassigned) [Compound 149]      Criterion met
3  C=CC(=O)N1CC(c2ccnc(-c3ccc4c(c3)Nc3nccc(N5CCOCC5)c3CO4)c2)C1  Criterion not met

Now look at this entry.
Q. # strict comparison: is reported Ki < 0.3 µM? input = C=CC(=O)N1CC[C@@H](N2CC(c3cc4c(c(C(F)(F)F)c3)OCc3c(N5CCOCC5)ccnc3N4)C2)C1 (single isomer, unassigned)
A. Criterion met

From: patent US20240254138A1
